experiment: Cytotoxicity against African green monkey Vero cells incubated for 72 hrs by neutral red based spectrophotometric analysis; type: toxicity, cell-based; settings: chlorocebus sabaeus
// reported CC50 for each item listed
Provide the measurement as a number trailed by its unit.

Record excerpt, results attached:
> print(dat)
                                item.smiles  measurement.label   result
1  CCCCCCCCCCCCCCCCSSCCCOP(=O)(O)CO[C@H](CO)Cn1ccc(N)nc1=O               CC50  12.7 µM
2  CCCCCCCCCCCCCCSSCCOP(=O)(O)CO[C@H](CO)Cn1ccc(N)nc1=O.N               CC50  6.53 µM
3  CCCCCCCCCCSSCCOP(=O)(O)CO[C@H](CO)Cn1ccc(N)nc1=O               CC50  81.3 µM
4  CCCCCCCCCCSSCCCOP(=O)(O)CO[C@H](CO)Cn1ccc(N)nc1=O               CC50   182 µM

(Q) Read off the recorded CC50 for `CCCCCCCCCCCCCCCCSSCCOP(=O)(O)CO[C@H](CO)Cn1ccc(N)nc1=O.N`
(A) 2.58 µM

* * *

experiment: Stability in human plasma assessed as half life; assay type: ADME, cell-free
measurement.label: t1/2 (h)
# output: bare number, implied unit h

Record excerpt, results attached:
> print(dat)
                                item.smiles  measurement.label  display.unit  numeric.value
1  CCCCCCCCCCCCSSCCCCCCOP(=O)(O)CO[C@H](CO)Cn1ccc(N)nc1=O.N               t1/2             h           4.45
2  CCCCCCCCCCCCCCCCSSCCCCOP(=O)(O)CO[C@H](CO)Cn1ccc(N)nc1=O.N               t1/2             h          4.375

(Q) Read off the recorded t1/2 for `CCCCCCCCCCCCCCSSCCOP(=O)(O)CO[C@H](CO)Cn1ccc(N)nc1=O.N`
(A) 2.144

(Q) Read off the recorded t1/2 for `CCCCCCCCCCCCCCCCSSCCOP(=O)(O)CO[C@H](CO)Cn1ccc(N)nc1=O.N`
(A) 3.237

* * *

experiment: Stability of the compound in phosphate buffer at pH 7.4 assessed as compound remaining measured after 360 mins in presence of GSH by HPLC method; assay type: physicochemical; conditions: phosphate buffer with GSH, read-out: Stability
measurement.label: remaining at 6 h (%)
# output: bare number, implied unit %

(Q) Read off the recorded remaining at 6 h for `CCCCCCCCCCCCCCSSCCOP(=O)(O)CO[C@H](CO)Cn1ccc(N)nc1=O.N`
(A) 13

* * *

assay: Therapeutic index, ratio of CC50 for human A549 cells to IC50 for AdV5 infected in human A549 cells; type: toxicity, cell-based; conditions: read-out: Ratio CC50/IC50
// reported selectivity ratio for each item listed

Record excerpt, results attached:
> print(dat)
                                item.smiles  result
1  CCCCCCCCCCCCCCCCOCCCOP(=O)(O)CO[C@H](CO)Cn1ccc(N)nc1=O    81.8
2  CCCCCCCCCCCCCCCCCCSSCCOP(=O)(O)CO[C@H](CO)Cn1ccc(N)nc1=O.N    73.1
3  CCCCCCCCCCSSCCOP(=O)(O)CO[C@H](CO)Cn1ccc(N)nc1=O     5.2
4  CCCCCCCCCCCCCCCCSSCCCCOP(=O)(O)CO[C@H](CO)Cn1ccc(N)nc1=O.N     232

In the following, a different compound is considered.
(Q) Read off the recorded selectivity ratio for `CCCCCCCCCCCCSSCCCCCCOP(=O)(O)CO[C@H](CO)Cn1ccc(N)nc1=O.N`
(A) 725

* * *

test: Cytotoxicity against African green monkey Vero cells incubated for 72 hrs by neutral red based spectrophotometric analysis; type: toxicity, cell-based; settings: chlorocebus sabaeus
measurement.label: CC50 (µM)
# output: bare number, implied unit µM

(Q) Read off the recorded CC50 for `CCCCCCCCCCCCCCCCSSCCCCOP(=O)(O)CO[C@H](CO)Cn1ccc(N)nc1=O.N`
(A) 12.5

(Q) Read off the recorded CC50 for `CCCCCCCCCCCCCCCCCCSSCCCOP(=O)(O)CO[C@H](CO)Cn1ccc(N)nc1=O`
(A) 9.87

(Q) Read off the recorded CC50 for `CCCCCCCCCCCCSSCCCOP(=O)(O)CO[C@H](CO)Cn1ccc(N)nc1=O`
(A) 33.3

(Q) Read off the recorded CC50 for `CCCCCCCCCCCCCCSSCCCOP(=O)(O)CO[C@H](CO)Cn1ccc(N)nc1=O.N`
(A) 13.9

(Q) Read off the recorded CC50 for `CCCCCCCCCCCCCCSSCCCCOP(=O)(O)CO[C@H](CO)Cn1ccc(N)nc1=O.N`
(A) 18.1

(Q) Read off the recorded CC50 for `CCCCCCCCCCCCCCSSCCCCCCOP(=O)(O)CO[C@H](CO)Cn1ccc(N)nc1=O.N`
(A) 8.56

(Q) Read off the recorded CC50 for `CCCCCCCCCCCCCCCCCCSSCCOP(=O)(O)CO[C@H](CO)Cn1ccc(N)nc1=O.N`
(A) 4.9

(Q) Read off the recorded CC50 for `CCCCCCCCCCCCSSCCCCCCOP(=O)(O)CO[C@H](CO)Cn1ccc(N)nc1=O.N`
(A) 15.2

* * *

experiment: Therapeutic index, ratio of CC50 for human A549 cells to IC50 for VAVC infected in human A549 cells; format: toxicity, cell-based; settings: read-out: Ratio CC50/IC50
// reported selectivity ratio for each item listed
Just the number, please.

Record excerpt, results attached:
> print(dat)
                                item.smiles  numeric.value
1  CCCCCCCCCCCCCCSSCCOP(=O)(O)CO[C@H](CO)Cn1ccc(N)nc1=O.N            186
2  CCCCCCCCCCCCCCCCCCSSCCOP(=O)(O)CO[C@H](CO)Cn1ccc(N)nc1=O.N            136
3  CCCCCCCCCCSSCCCCOP(=O)(O)CO[C@H](CO)Cn1ccc(N)nc1=O           3.55
4  CCCCCCCCCCCCCCSSCCCCOP(=O)(O)CO[C@H](CO)Cn1ccc(N)nc1=O.N             74
5  CCCCCCCCCCCCCCCCSSCCCCOP(=O)(O)CO[C@H](CO)Cn1ccc(N)nc1=O.N           18.8

(Q) Read off the recorded selectivity ratio for `CCCCCCCCCCSSCCCCCCOP(=O)(O)CO[C@H](CO)Cn1ccc(N)nc1=O`
(A) 45.2

(Q) Read off the recorded selectivity ratio for `CCCCCCCCCCCCSSCCCCCCOP(=O)(O)CO[C@H](CO)Cn1ccc(N)nc1=O.N`
(A) 160

* * *

assay: Stability of the compound in phosphate buffer at pH 7.4 assessed as compound remaining measured upto 400 mins in presence of GSH by HPLC method; assay type: physicochemical; settings: phosphate buffer with GSH, pH 7.4, read-out: Stability
// reported remaining at 6.667 h for each item listed
# output: bare number, implied unit %

> print(dat)
                                item.smiles  display.unit  numeric.value
1  CCCCCCCCCCCCCCCCSSCCOP(=O)(O)CO[C@H](CO)Cn1ccc(N)nc1=O.N             %             81

(Q) Read off the recorded remaining at 6.667 h for `CCCCCCCCCCCCCCCCCCSSCCOP(=O)(O)CO[C@H](CO)Cn1ccc(N)nc1=O.N`
(A) 93

* * *

test system: Lipid bilayer; assay: Induction of micelles formation in PBS at pH 7.4 by TEM analysis; format: physicochemical; conditions: buffer
measurement.label: Activity

> print(dat)
                                item.smiles  measurement.label  result
1  CCCCCCCCCCCCCCSSCCOP(=O)(O)CO[C@H](CO)Cn1ccc(N)nc1=O.N           Activity  Active
2  CCCCCCCCCCCCCCCCSSCCCCOP(=O)(O)CO[C@H](CO)Cn1ccc(N)nc1=O.N           Activity  Active
3  CCCCCCCCCCCCCCCCSSCCOP(=O)(O)CO[C@H](CO)Cn1ccc(N)nc1=O.N           Activity  Active
4  CCCCCCCCCCCCCCCCCCSSCCOP(=O)(O)CO[C@H](CO)Cn1ccc(N)nc1=O.N           Activity  Active

In the following, a different molecule is considered.
(Q) # assay system Lipid bilayer: give Activity of `CCCCCCCCCCCCCCSSCCCCCCOP(=O)(O)CO[C@H](CO)Cn1ccc(N)nc1=O.N`
(A) Active

* * *

assay: Cytotoxicity against African green monkey Vero cells incubated for 72 hrs by neutral red based spectrophotometric analysis; assay type: toxicity, cell-based; conditions: chlorocebus sabaeus
Labelling field: enter condition met if recorded CC50 is less than 40 µM. Enter condition not met if it equals or exceeds that cut-off.

Below, 4 compounds whose answers are already recorded.
> print(dat)
                                   compound   class.assignment
1  CCCCCCCCCCSSCCCCCCOP(=O)(O)CO[C@H](CO)Cn1ccc(N)nc1=O  condition not met
2  CCCCCCCCCCCCCCCCOCCCOP(=O)(O)CO[C@H](CO)Cn1ccc(N)nc1=O [BRINCIDOFOVIR]      condition met
3  CCCCCCCCCCCCSSCCOP(=O)(O)CO[C@H](CO)Cn1ccc(N)nc1=O      condition met
4  CCCCCCCCCCCCSSCCCCOP(=O)(O)CO[C@H](CO)Cn1ccc(N)nc1=O      condition met

Okay, now this compound:
(Q) Please state whether CC50 is below 40 µM for `CCCCCCCCCCSSCCCCOP(=O)(O)CO[C@H](CO)Cn1ccc(N)nc1=O`
(A) condition not met
